Test Description: inhibitors of cytokine-induced beta cell apoptosis, primary screen, luminescence (AID 435005);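 note: 0% = cytokine-treated negative control wells and 100% = positive control rescue; higher means more ATP so stronger rescue from cytokine killing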
Assay Context: INS-1E cytokine-induced death, ATP luminescence, 48 h; active compounds read high; percent of positive-control rescue, neutral wells zero; concentration not given here
Hit rate of the full screen: of about 300,000 compounds, about 2,400 (0.8%) were called active. This excerpt belongs to a sample that is enriched for actives.
Collected protection from apoptosis values appear next to each entry.
Number only, in %; omit the unit.

CCN(CC)CCOc1ccc2c(c1)C(=NNC(=O)c1ccccn1)c1cc(OCCN(CC)CC)ccc1-2
107

Any idea what its protection from apoptosis is? The molecule is Cc1ccc(Cl)cc1NC(=O)c1ccccn1 -1.51
